Test: BET inhibitor-based combinations targeting novel dependencies in MECOM-rearranged (r) AML: HNT-34 cell line (AID 2202234); further: nearly all actives have a fitted effect of over 35% in size
Conditions: HNT-34 AML viability, CellTiter-Glo luminescence, 48 h; series mostly up to 46 µM
Experimental: Ecotropic viral insertion site 1 (EVI1) is located on chromosome 3q26.2 as part of the MECOM (MDS and EVI1 complex) locus. […] A collection of 2480 mechanistically annotated dugs (MIPE v5.0) was used to screen four 3q26.2 rearranged AML cell lines and three non-3q26.2 rearranged AML cell lines. […] Cell viability was determined by luminescence based, Cell Titer Glo assay (Promega). […] Luminescence readings were taken using a Viewlux (PerkinElmer) with a 2 s exposure time per plate. […]
Inconclusive results are not listed. Activity calls are given as the source filed them. The call rests on the fitted dose curve; in most records, active means well fitted inhibition curve with a large enough effect; inconclusive means small, poorly fitted or top-dose-only effect; inactive means no such curve, though single readings can be large or run the other way.
Pick from active, inactive when you respond.

Use these answered entries as a reference point.
>>> class_label("NS(=O)(=O)c1cccc2c1C(=O)c1cccc(O)c1C2=O")
"active"
>>> class_label("COc1cccc2nc(-c3cccs3)nc(NN3C(=O)C=C(C)C3=O)c12")
"active"
>>> class_label("Cc1nnc(C(C)C)n1C1CC2CCC(C1)N2CCC(NC(=O)C1CCC(F)(F)CC1)c1ccccc1 (stereo unspecified)")
"inactive"
>>> class_label("COc1cc2c(cc1OCCCN1CCCC1)N=C(N)C21CCC1")
"inactive"
>>> class_label("CNC(=O)c1ccccc1Nc1nc(Nc2ccc3c(c2OC)CCC[C@@H](N2CCN(CCO)CC2)C3)ncc1Cl")
"inactive"
>>> class_label("Cc1cn2cc(C(=O)N(C)CCO)cc(N[C@@H]3CCOc4cccc(C)c43)c2n1")
"inactive"
>>> class_label("CN1CCN(C2CCN(C(=O)Nc3cc(Oc4ccc(NC(=O)C5(C(=O)Nc6ccc(F)cc6)CC5)c(F)c4)ccn3)CC2)CC1")
"active"
>>> class_label("Cc1c(C)n(Cc2ccc(-c3ccccc3C(=O)O)cc2)c2ccc(C(=O)N[C@@H](C)c3ccc([N+](=O)[O-])cc3)cc12")
"inactive"

IN: Per the assay record, what outcome was assigned to CCOc1cc(C(=O)Nc2ccc(Cl)c(-c3nc4ccccc4[nH]3)c2)cc(OCC)c1OCC ?
OUT: active

IN: Per the assay record, what outcome was assigned to OC[C@H]1OC(O)C[C@@H](O)[C@H]1O (stereo partly specified) ?
OUT: inactive

IN: Per the assay record, what outcome was assigned to CCOC(=O)[C@H](CCc1ccccc1)N[C@@H](C)C(=O)N1CCC[C@H]1C(=O)O ?
OUT: inactive

IN: Per the assay record, what outcome was assigned to CCNC1(C(N)=O)CCN(c2ncnc3c2nc(-c2ccccc2Cl)n3-c2ccc(Cl)cc2)CC1 ?
OUT: active

IN: Per the assay record, what outcome was assigned to COc1ccccc1[C@H](c1cccc2ccccc12)[C@@](C)(C#N)C(=O)N1CCC(c2cccc(C(F)(F)F)c2)CC1 ?
OUT: active

IN: Per the assay record, what outcome was assigned to Nc1ncnc2c1c(-c1cnc3[nH]ccc3c1)nn2C1CCCC1 ?
OUT: active

IN: Per the assay record, what outcome was assigned to CCNC(=O)C#Cc1ccc2c(C(=Nc3ccc(CN(C)C)cc3)c3ccccc3)c(O)[nH]c2c1 ?
OUT: active

IN: Per the assay record, what outcome was assigned to CCCCCOC(=O)Nc1nc(=O)n([C@@H]2O[C@H](C)[C@@H](O)[C@H]2O)cc1F ?
OUT: inactive

IN: Per the assay record, what outcome was assigned to Cc1ccc(-c2ccc3ncc4c(c3n2)n(C2CCN(C(=O)[C@H](C)O)CC2)c(=O)n4C)cn1 ?
OUT: active

IN: Per the assay record, what outcome was assigned to OC[C@H]1O[C@@H](O[C@@H]2[C@@H](CO)O[C@](O)(CO)[C@H]2O)[C@H](O)[C@@H](O)[C@H]1O ?
OUT: inactive
